Reported Inhibition of Rabbit Erythrocyte Lysis (IC50 nM), 10% factor D-depleted human serum by item:
Measurement target: T1, human MASP-3 (construct not stated) (human)
T1 chain: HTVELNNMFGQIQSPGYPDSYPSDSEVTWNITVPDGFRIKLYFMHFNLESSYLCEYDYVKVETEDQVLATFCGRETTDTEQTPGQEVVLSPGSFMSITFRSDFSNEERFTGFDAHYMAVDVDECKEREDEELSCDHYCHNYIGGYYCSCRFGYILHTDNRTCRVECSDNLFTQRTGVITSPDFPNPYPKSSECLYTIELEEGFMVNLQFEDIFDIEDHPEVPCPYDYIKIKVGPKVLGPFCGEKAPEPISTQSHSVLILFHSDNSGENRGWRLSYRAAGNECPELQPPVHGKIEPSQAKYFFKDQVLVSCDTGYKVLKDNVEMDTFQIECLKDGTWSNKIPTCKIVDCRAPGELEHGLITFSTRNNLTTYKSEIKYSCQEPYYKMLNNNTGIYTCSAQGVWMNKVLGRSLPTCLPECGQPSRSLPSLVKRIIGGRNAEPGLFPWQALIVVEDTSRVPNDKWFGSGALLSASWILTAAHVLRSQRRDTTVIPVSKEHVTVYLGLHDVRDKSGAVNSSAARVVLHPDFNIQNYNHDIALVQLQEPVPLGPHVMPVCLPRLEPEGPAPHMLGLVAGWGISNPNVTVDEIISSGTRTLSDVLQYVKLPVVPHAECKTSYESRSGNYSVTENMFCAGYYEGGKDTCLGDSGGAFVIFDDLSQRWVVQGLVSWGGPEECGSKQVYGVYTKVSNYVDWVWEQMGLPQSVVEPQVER
Measurement protocol: cell-based or functional assay
A number alone suffices; assume nM.

>>> number("MASP-3 mAb 1F3 (mouse-human chimeric IgG4) (antibody, V domains shown) VH: QVQLKQSGPELVKPGASVKLSCKASGYTFTSNDINWVKQRPGQGLEWIGWIYPRDGSIKYNEKFTDKATLTVDVSSSTAYMELHSLTSEDSAVYFCSGVEDSYWGQGTLVTVSS VL: DIVMTQSPSSLAVSAGERVTMSCKSSQSLLISRTRKNYLSWYQQKPGQSPKLLIYWASTRESGVPDRFTGSGSGTDFTLTISSVQAEDLAVYYCKQSYNLYTFGGGTKLEIKR")
0.2
>>> number("MASP-3 mAb 2D7 (mouse-human chimeric IgG4) (antibody, V domains shown) VH: EVQLQQSGPELVKPGASVKVSCKASGYTLTDYYMNWVKQSHGKSLEWIGDVNPNNDGTTYNQKFKGRATLTVDKSSNTASMELRSLTSEDSAVYYCAICPFYYLGKGTHFDYWGQGTSLTVSS VL: DIQMTQTPASLSASLGDRVTISCRASQDISNFLNWYQQKPNGTVKLLVFYTSRLHSGVPSRFSGSGSGAEHSLTISNLEQEDVATYFCQQGFTLPWTFGGGTKVEIKR")
5.4
>>> number("MASP-3 mAb 1A10 (mouse-human chimeric IgG4) (antibody, V domains shown, The light chain of 1A10 was not identified) VH: QVQLKQSGPELVKPGASVKLSCKASGYTFTSNDINWVKQRPGQGLEWIGWIYPRDGTTKYNEKFTDKATLTVDVSSSTAFMELHRLTSEDSAVYFCSSVEDSYWGQGTLVTVSS VL: DIVMTQSPSSLAVSAGEKVTMSCKSSQSLLISRTRKNYLSWYQQKPGQSPKLLIYWASTRESGVPDRFTGSGSGTDFTLTISSVQAEDLAVYYCKQSYNLYTFGGGTKLEIKR")
0.2
>>> number("MASP-3 mAb 4D5 (mouse-human chimeric IgG4) (antibody, V domains shown) VH: QVQLKQSGPELVKPGASVKLSCKASGYTFTTDDINWVKQRPGQGLEWIGWIYPRDDRTKYNDKFKDKATLTVDTSSNTAYMDLHSLTSEDSAVYFCSSLEDTYWGQGTLVAVSS VL: DIVMTQSPSSLAVSAGEKVTMTCKSSQSLLNSRTRKNYLAWYQQKPGQSPKLLIYWASTRESGVPDRFTGSGSGTDFSLTISSVQAEDLAVYYCKQSYNLYTFGGGTKLEIKR")
0.1

Consider now this further binder.
Inhibition of Rabbit Erythrocyte Lysis (IC50 nM), 10% factor D-depleted human serum reading for MASP-3 mAb 4B6 (mouse-human chimeric IgG4) (antibody, V domains shown) VH: QVQLKQSGPELVKPGASVKLSCKASGYTFTSNDINWVKQRPGQGLEWIGWIYPRDGTTKYNEEFTDKATLTVDVSSSTAFMELHSLTSEDSAVYFCSSVEDSYWGQGTLVTVSS VL: DIVMTQSPSSLAVSAGEKVTMSCKSSQSLLISRTRKNYLSWYQQKPGQSPKLLIYWASTRESGVPDRFTGSGSGTDFTLTISSVQAEDLAVYYCKQSYNLYTFGGGTKLEIKR : 0.2
